# Tested on: Pseudomonas aeruginosa
# method.description: Antibacterial activity against Pseudomonas aeruginosa MTCC 7952 after 24 hrs by serial dilution technique
# Type: functional
# condition.set: Pseudomonas aeruginosa, MTCC 7952, 24 h
Mark true only when MIC stays strictly below 60 µM. Values equal to the cut-off are false.

# molecule, target.system, classification
data = [
    ("CC1(C)S[C@@H]2[C@H](NC(=O)Cc3ccccc3)C(=O)N2[C@H]1C(=O)O", "Pseudomonas aeruginosa", "true"),
    ("O=C1c2ccccc2C2=Nc3ccc(Br)cc3SC12c1ccc(Cl)cc1 (stereo unspecified)", "Pseudomonas aeruginosa", "true"),
    ("COc1ccc(C23Sc4cc(Br)ccc4N=C2c2ccccc2C3=O)cc1 (stereo unspecified)", "Pseudomonas aeruginosa", "true"),
    ("Cc1ccc(C23Sc4cc(C)ccc4N=C2c2ccccc2C3=O)cc1 (stereo unspecified)", "Pseudomonas aeruginosa", "false"),
]

query: hey, is MIC for COc1ccc2c(c1)SC1(c3ccc(C)cc3)C(=O)c3ccccc3C1=N2 (stereo unspecified) lower than 60 µM or not?
result: true

* * *

# System: Bacillus subtilis
# method.description: Antibacterial activity against Bacillus subtilis MTCC 441 after 24 hrs by serial dilution technique
# Assay type: functional
# condition.set: Bacillus subtilis, MTCC 441, 24 h
Mark 1.0 only when MIC stays strictly below 30 µM. Values equal to the cut-off are 0.0.

Solved cases below.
# compound, target.system, classification
data = [
    ("O=C1c2ccccc2C2=Nc3ccc(Br)cc3SC12c1ccc(Cl)cc1 (configuration not stated)", "Bacillus subtilis", 1.0),
    ("CN[C@@H]1[C@H](O[C@H]2[C@H](O[C@H]3[C@H](O)[C@@H](O)[C@H](N=C(N)N)[C@@H](O)[C@@H]3N=C(N)N)O[C@@H](C)[C@]2(O)C=O)O[C@@H](CO)[C@H](O)[C@H]1O", "Bacillus subtilis", 1.0),
    ("COc1ccc2c(c1)SC1(c3ccccc3)C(=O)c3ccccc3C1=N2 (configuration not stated)", "Bacillus subtilis", 0.0),
    ("CC1(C)S[C@@H]2[C@H](NC(=O)Cc3ccccc3)C(=O)N2[C@H]1C(=O)O", "Bacillus subtilis", 1.0),
    ("COc1ccc2c(c1)SC1(c3ccc(Cl)cc3)C(=O)c3ccccc3C1=N2 (configuration not stated)", "Bacillus subtilis", 0.0),
    ("O=C1c2ccccc2C2=Nc3ccc(Br)cc3SC12c1ccccc1 (configuration not stated)", "Bacillus subtilis", 0.0),
    ("Cc1ccc(C23Sc4ccccc4N=C2c2ccccc2C3=O)cc1 (configuration not stated)", "Bacillus subtilis", 0.0),
    ("Cc1ccc2c(c1)SC1(c3ccccc3)C(=O)c3ccccc3C1=N2 (configuration not stated)", "Bacillus subtilis", 0.0),
    ("O=C1c2ccccc2C2=Nc3ccccc3SC12c1ccccc1 (configuration not stated)", "Bacillus subtilis", 0.0),
    ("COc1ccc(C23Sc4cc(C)ccc4N=C2c2ccccc2C3=O)cc1 (configuration not stated)", "Bacillus subtilis", 0.0),
]

query: hey, is MIC for O=C1c2ccccc2C2=Nc3ccccc3SC12c1ccc(Cl)cc1 (configuration not stated) lower than 30 µM or not?
result: 0.0

query: hey, is MIC for Cc1ccc2c(c1)SC1(c3ccc(Cl)cc3)C(=O)c3ccccc3C1=N2 (configuration not stated) lower than 30 µM or not?
result: 0.0

query: hey, is MIC for COc1ccc(C23Sc4cc(OC)ccc4N=C2c2ccccc2C3=O)cc1 (configuration not stated) lower than 30 µM or not?
result: 1.0

query: hey, is MIC for COc1ccc(C23Sc4cc(Br)ccc4N=C2c2ccccc2C3=O)cc1 (configuration not stated) lower than 30 µM or not?
result: 1.0

query: hey, is MIC for Cc1ccc(C23Sc4cc(C)ccc4N=C2c2ccccc2C3=O)cc1 (configuration not stated) lower than 30 µM or not?
result: 0.0

query: hey, is MIC for COc1ccc2c(c1)SC1(c3ccc(C)cc3)C(=O)c3ccccc3C1=N2 (configuration not stated) lower than 30 µM or not?
result: 0.0

* * *

Reported -logMIC values follow for various compounds
# Test system: Bacillus subtilis
# method.description: Antibacterial activity against Bacillus subtilis MTCC 441 after 24 hrs by serial dilution technique
# Type: functional
Answer with a bare number; do not write a unit.

# compound, -logMIC
measured = [
    ("O=C1c2ccccc2C2=Nc3ccc(Br)cc3SC12c1ccc(Cl)cc1 (stereo not given)", 1.55),
    ("COc1ccc2c(c1)SC1(c3ccc(C)cc3)C(=O)c3ccccc3C1=N2 (stereo not given)", 1.17),
    ("COc1ccc(C23Sc4cc(OC)ccc4N=C2c2ccccc2C3=O)cc1 (stereo not given)", 2.4),
]

// field: -logMIC; key: COc1ccc2c(c1)SC1(c3ccc(Cl)cc3)C(=O)c3ccccc3C1=N2 (stereo not given) ; value = 1.5

// field: -logMIC; key: O=C1c2ccccc2C2=Nc3ccccc3SC12c1ccccc1 (stereo not given) ; value = 1.12

// field: -logMIC; key: Cc1ccc(C23Sc4cc(Br)ccc4N=C2c2ccccc2C3=O)cc1 (stereo not given) ; value = 1.53

// field: -logMIC; key: COc1ccc2c(c1)SC1(c3ccccc3)C(=O)c3ccccc3C1=N2 (stereo not given) ; value = 1.15

// field: -logMIC; key: COc1ccc(C23Sc4cc(Br)ccc4N=C2c2ccccc2C3=O)cc1 (stereo not given) ; value = 2.15

* * *

# System: Pseudomonas aeruginosa
# method.description: Antibacterial activity against Pseudomonas aeruginosa MTCC 7952 after 24 hrs by serial dilution technique
# Type: functional
# condition.set: Pseudomonas aeruginosa, MTCC 7952, 24 h
endpoint: log10 of MIC (log10 of the value in µM)
Scale: log10; quantity: MIC; unit before log: µM

Use the examples below as a reference point.
# compound, target.system, log10 of MIC
measured = [
    ("CN[C@@H]1[C@H](O[C@H]2[C@H](O[C@H]3[C@H](O)[C@@H](O)[C@H](N=C(N)N)[C@@H](O)[C@@H]3N=C(N)N)O[C@@H](C)[C@]2(O)C=O)O[C@@H](CO)[C@H](O)[C@H]1O [STREPTOMYCIN]", "Pseudomonas aeruginosa", 0.41),
    ("O=C1c2ccccc2C2=Nc3ccccc3SC12c1ccccc1 (centres undefined)", "Pseudomonas aeruginosa", 1.58),
    ("Cc1ccc2c(c1)SC1(c3ccc(Cl)cc3)C(=O)c3ccccc3C1=N2 (centres undefined)", "Pseudomonas aeruginosa", 1.82),
    ("COc1ccc(C23Sc4cc(C)ccc4N=C2c2ccccc2C3=O)cc1 (centres undefined)", "Pseudomonas aeruginosa", 1.83),
    ("Cc1ccc2c(c1)SC1(c3ccccc3)C(=O)c3ccccc3C1=N2 (centres undefined)", "Pseudomonas aeruginosa", 1.87),
    ("Cc1ccc(C23Sc4ccccc4N=C2c2ccccc2C3=O)cc1 (centres undefined)", "Pseudomonas aeruginosa", 1.86),
    ("COc1ccc2c(c1)SC1(c3ccc(Cl)cc3)C(=O)c3ccccc3C1=N2 (centres undefined)", "Pseudomonas aeruginosa", 1.81),
    ("COc1ccc2c(c1)SC1(c3ccccc3)C(=O)c3ccccc3C1=N2 (centres undefined)", "Pseudomonas aeruginosa", 1.54),
]

// switching to the query compound
// field: log10 of MIC; key: O=C1c2ccccc2C2=Nc3ccc(Br)cc3SC12c1ccccc1 (centres undefined) ; value = 1.19

* * *

# Tested on: Escherichia coli
# method.description: Antibacterial activity against Escherichia coli MTCC 42 after 24 hrs by serial dilution technique
# Assay type: functional
endpoint: -logMIC
Answer with a bare number; do not write a unit.

Use the examples below as a reference point.
# molecule, target.system, value.measured
measured = [
    ("Cc1ccc2c(c1)SC1(c3ccc(Cl)cc3)C(=O)c3ccccc3C1=N2 (stereo not drawn)", "Escherichia coli", 1.18),
    ("COc1ccc(C23Sc4cc(C)ccc4N=C2c2ccccc2C3=O)cc1 (stereo not drawn)", "Escherichia coli", 1.17),
    ("Cc1ccc(C23Sc4cc(Br)ccc4N=C2c2ccccc2C3=O)cc1 (stereo not drawn)", "Escherichia coli", 1.23),
    ("COc1ccc2c(c1)SC1(c3ccc(C)cc3)C(=O)c3ccccc3C1=N2 (stereo not drawn)", "Escherichia coli", 2.38),
    ("COc1ccc(C23Sc4cc(OC)ccc4N=C2c2ccccc2C3=O)cc1 (stereo not drawn)", "Escherichia coli", 1.79),
    ("COc1ccc(C23Sc4cc(Br)ccc4N=C2c2ccccc2C3=O)cc1 (stereo not drawn)", "Escherichia coli", 1.84),
]

// field: -logMIC; key: O=C1c2ccccc2C2=Nc3ccccc3SC12c1ccccc1 (stereo not drawn) ; value = 1.42

// field: -logMIC; key: O=C1c2ccccc2C2=Nc3ccccc3SC12c1ccc(Cl)cc1 (stereo not drawn) ; value = 2.37

// field: -logMIC; key: COc1ccc(C23Sc4ccccc4N=C2c2ccccc2C3=O)cc1 (stereo not drawn) ; value = 1.15

// field: -logMIC; key: O=C1c2ccccc2C2=Nc3ccc(Br)cc3SC12c1ccccc1 (stereo not drawn) ; value = 1.21

// field: -logMIC; key: Cc1ccc(C23Sc4cc(C)ccc4N=C2c2ccccc2C3=O)cc1 (stereo not drawn) ; value = 1.45

// field: -logMIC; key: O=C1c2ccccc2C2=Nc3ccc(Br)cc3SC12c1ccc(Cl)cc1 (stereo not drawn) ; value = 1.24

// field: -logMIC; key: COc1ccc2c(c1)SC1(c3ccc(Cl)cc3)C(=O)c3ccccc3C1=N2 (stereo not drawn) ; value = 1.19
